Test: total protein half-life in vivo (active degradation + dilution); higher = more stable protein
Conditions: wild type E. coli NCM3722; growth: C-lim chemostat; doubling time 3 h
Label 1 when total protein half-life in vivo >= 3 h; otherwise 0.

# count of solved cases: 3
[
  {
    "Record Sequence": "MHTSELLKHIYDINLSYLLLAQRLIVQDKASAMFRLGINEEMATTLAALTLPQMVKLAETNQLVCHFRFDSHQTITQLTQDSRVDDLQQIHTGIMLSTRLLNDVNQPEEALRKKRA [P0A8S9]",
    "Answer Label": 0
  },
  {
    "Record Sequence": "MSHTIRDKQKLKARASKIQGQVVALKKMLDEPHECAAVLQQIAAIRGAVNGLMREVIKGHLTEHIVHQGDELKREEDLDVVLKVLDSYIK",
    "Answer Label": 1
  },
  {
    "Record Sequence": "MLKFIQNNREITALLAVVLLFVLPGFLDRQYLSVQTLTMVYSSAQILILLAMGATLVMLTRNIDVSVGSITGMCAVLLGMLLNAGYSLPVACVATLLLGLLAGFFNGVLVAWLKIPAIVATLGTLGLYRGIMLLWTGGKWIEGLPAELKQLSAPLLLGVSAIGWLTIILVAFMAWLLAKTAFGRSFYATGDNLQGARQLGVRTEAIRIVAFSLNGCMAALAGIVFASQIGFIPNQTGTGLEMKAIAACVLGGISLLGGSGAIIGAVLGAWFLTQIDSVLVLLRIPAWWNDFIAGLVLLAVLVFDGRLRCALERNLRRQKYARFMTPPPSVKPASSGKKREAA",
    "Answer Label": 1
  }
]

Is it the case that MRVLIVKTSSMGDVLHTLPALTDAQQAIPGIKFDWVVEEGFAQIPSWHAAVERVIPVAIRRWRKAWFSAPIKAERKAFREALQAENYDAVIDAQGLVKSAALVTRLAHGVKHGMDWQTAREPLASLFYNRKHHIAKQQHAVERTRELFAKSLGYSKPQTQGDYAIAQHFLTNLPTDAGEYAVFLHATTRDDKHWPEEHWRELIGLLADSGIRIKLPWGAPHEEERAKRLAEGFAYVEVLPKMSLEGVARVLAGAKFVVSVDTGLSHLTAALDRPNITVYGPTDPGLIGGYGKNQMVCRAPRENLINLNSQAVLEKLSSL has total protein half-life in vivo reaching or exceeding 3 h?
0

// inclusive: total protein half-life in vivo at least 3 h? input: MSERLSITPLGPYIGAQISGADLTRPLSDNQFEQLYHAVLRHQVVFLRDQAITPQQQRALAQRFGELHIHPVYPHAEGVDEIIVLDTHNDNPPDNDNWHTDVTFIETPPAGAILAAKELPSTGGDTLWTSGIAAYEALSVPFRQLLSGLRAEHDFRKSFPEYKYRKTEEEHQRWREAVAKNPPLLHPVVRTHPVSGKQALFVNEGFTTRIVDVSEKESEALLSFLFAHITKPEFQVRWRWQPNDIAIWDNRVTQHYANADYLPQRRIMHRATILGDKPFYRAG
0

Record MKIISKMLVGALALAVTNVYAAELMTKAEFEKVESQYEKIGDISTSNEMSTADAKEDLIKKADEKGADVLVLTSGQTDNKIHGTANIYKKK ; criterion: total protein half-life in vivo no lower than 3 h. Met?
0
